# Test system: LOX IMVI melanoma
# procedure.details: NCI tumour cell line growth inhibition, 48 h; in the data active = GI50 below about 0.43 µM; inactive = the rest
// classify into label 1 (active), label 0 (inactive)

Exam item: Record lookup: outcome of this test for CN1CCN(CCCn2c(=O)c3sc4ncccc4c3n3nnc(-c4ccccc4)c23)CC1 ?
Marked response: label 0

Exam item: Hi team, can someone confirm the assay call for Cn1cnc([N+](=O)[O-])c1S(=O)(=O)Oc1cccc2ccccc12 ?
Marked response: label 0

Exam item: Please state the recorded outcome for this molecule: O=C(CCc1nnc2sc(-c3ccc(Cl)cc3Cl)nn12)c1nc2ncccc2[nH]1
Marked response: label 0

Exam item: Assay outcome for COc1cc2c3c(n(C)c(=O)c2cc1OC)-c1cc2c(cc1/C3=C\CCCN)OCO2 : what was it?
Marked response: label 0

Exam item: // return assay outcome for ClCc1cccc(Cn2cnc3ncnc(Cl)c32)c1
Marked response: label 0

Exam item: I would be grateful if you could indicate the recorded call for COc1ccc(-c2nnc(COc3ccc(C(=O)/C=C/c4ccco4)cc3)o2)cc1 .
Marked response: label 0

Exam item: Please share the test call associated with Cc1cc(I)cc(CN(C)CCCN2CCCCC2)c1O .
Marked response: label 0

Exam item: Identify the outcome logged in this assay for the molecule shown: CCCCCCCC(=O)SCC/C=C/[C@@H]1CC(=O)NCc2cc(ccn2)C2=N[C@@](C)(CS2)C(=O)N[C@@H](C(C)C)C(=O)O1
Marked response: label 1

Exam item: Returns: the outcome recorded for COc1ccc(/C=C(/C#N)n2nnc3cccc(F)c32)cc1 in this assay.
Marked response: label 0
